meta.source: the Kinase Knowledgebase extract (Sharma et al. 2016)

Values of pIC50 reported for ROCK2 (human) appear below.
Scale: negative log10 of molar concentration, which is what pIC50 denotes.

Known pIC50 results, listed for orientation:
compound	property	observed
NC(=O)c1ccc2c(c1)CC(c1nc3ccc(-c4ccnc(N)n4)cc3[nH]1)CO2 (centres undefined)	pIC50	8.40
CN(C)S(=O)(=O)c1ccc2c(c1)CC(c1nc3ccc(-c4ccnc(N)n4)cc3[nH]1)CO2 (centres undefined)	pIC50	7.40

Now let's try a different one.
[in] Would you kindly share the measured pIC50 for Nc1nccc(-c2ccc3nc(C4COc5ccc(Br)cc5C4)[nH]c3c2)n1 (centres undefined) ?
[out] 8.00
